# target.system: D2 receptors (Homo sapiens, UniProt P14416)
# Sequence (P14416 whole entry): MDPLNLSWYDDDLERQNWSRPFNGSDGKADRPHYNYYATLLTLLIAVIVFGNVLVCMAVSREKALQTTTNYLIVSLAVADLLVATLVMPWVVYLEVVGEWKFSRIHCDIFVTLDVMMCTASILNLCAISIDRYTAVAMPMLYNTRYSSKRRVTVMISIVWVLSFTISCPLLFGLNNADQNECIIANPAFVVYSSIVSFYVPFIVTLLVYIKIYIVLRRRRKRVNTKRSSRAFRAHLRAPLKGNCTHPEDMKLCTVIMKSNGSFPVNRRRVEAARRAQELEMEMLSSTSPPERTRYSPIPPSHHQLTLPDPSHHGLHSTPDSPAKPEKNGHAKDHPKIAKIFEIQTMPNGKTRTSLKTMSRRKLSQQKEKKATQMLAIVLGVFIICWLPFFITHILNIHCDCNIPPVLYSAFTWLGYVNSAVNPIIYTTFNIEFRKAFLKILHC
# assay.protocol: D2 receptor affinity, NIMH Psychoactive Drug Screening Program
# condition.label: D2, PDSP accession number 3156
readout.label: Ki (nM)
Numbers only here, please. The scale is nM.

*Q* Specify reported Ki for the molecule shown: Cc1ccccc1CN1CCC(N2CCC(n3c(=O)[nH]c4ccccc43)CC2)CC1 [TBPB]
*A* 1400
